- Tested on: Aspergillus fumigatus ATCC 16424
- ASSAY METHOD TEXT: Broth microdilution antifungal susceptibility (MIC/MFC)
- Assay type: cell-based
- RUN PARAMETERS: broth microdilution, 35°C, 48 h
Measured MIC, Af ATCC 16424, listed per entry for reference.

Consider the reported MIC, Af ATCC 16424 for these molecules:
- MOLECULE: "O=[N+]([O-])/C=C/c1ccc([N+](=O)[O-])cc1 [Compound 7, 1-nitro-4-((E)-2-nitrovinyl) benzene]"
  TESTED ON: "Aspergillus fumigatus ATCC 16424"
  MIC, Af ATCC 16424: "4 µg/mL"
- MOLECULE: "CC/C(=C\\c1cccc(O)c1)[N+](=O)[O-] [Compound 21, 3-((E)-2-nitrobut-1-enyl) phenol]"
  TESTED ON: "Aspergillus fumigatus ATCC 16424"
  MIC, Af ATCC 16424: "8 µg/mL"
- MOLECULE: "CC/C(=C\\c1ccc([N+](=O)[O-])cc1)[N+](=O)[O-]"
  TESTED ON: "Aspergillus fumigatus ATCC 16424"
  MIC, Af ATCC 16424: "8 µg/mL"

Looking for the measured MIC, Af ATCC 16424 of C/C(=C\c1ccc(O)cc1)[N+](=O)[O-] [Compound 17, 4-((E)-2-nitroprop-1-enyl) phenol] , can you help?
8 µg/mL

Looking for the measured MIC, Af ATCC 16424 of CC/C(=C\c1ccc(O)cc1)[N+](=O)[O-] [Compound 18, 4-((E)-2-nitrobut-1-enyl) phenol] , can you help?
8 µg/mL

Looking for the measured MIC, Af ATCC 16424 of C/C(=C\c1cccc(O)c1)[N+](=O)[O-] [Compound 20, 3-((E)-2-nitroprop-1-enyl) phenol] , can you help?
8 µg/mL

###

- Test system: Candida albicans ATCC 90028
- ASSAY METHOD TEXT: Broth microdilution antifungal susceptibility (MIC/MFC)
- Type: cell-based
- RUN PARAMETERS: Candida albicans, ATCC90028, 48 h, broth microdilution, 35°C, 48 h; read-out: MIC, Ca ATCC 90028
RESULT TYPE: MIC

Consider the reported MIC for these molecules:
- MOLECULE: "CC/C(=C\\c1ccc(OC)cc1)[N+](=O)[O-]"
  OBS VALUE: "32 µg/mL"
- MOLECULE: "CC/C(=C\\c1ccc(N(C)C)cc1)[N+](=O)[O-]"
  OBS VALUE: "> 64 µg/mL"
- MOLECULE: "O=[N+]([O-])/C=C/c1c[nH]c2ccccc12 [Compound 28, 3-((E)-2-nitrovinyl)-1H-indole]"
  OBS VALUE: "32 µg/mL"
- MOLECULE: "COc1ccc(/C=C(\\C)[N+](=O)[O-])cc1"
  OBS VALUE: "32 µg/mL"
- MOLECULE: "C[C@@H]1[C@H](O)[C@@H](C)/C=C/C=C/C=C/C=C/C=C/C=C/C=C/[C@H](O[C@@H]2O[C@H](C)[C@@H](O)[C@H](N)[C@@H]2O)C[C@@H]2O[C@](O)(C[C@@H](O)C[C@@H](O)[C@H](O)CC[C@@H](O)C[C@@H](O)CC(=O)O[C@H]1C)C[C@H](O)[C@H]2C(=O)O [AmB, Amphotericin B, reference compound]"
  OBS VALUE: "0.5 µg/mL"

Lab note: need MIC for O=[N+]([O-])/C=C/c1ccc(O)cc1 [Compound 16, 4-((E)-2-nitrovinyl) phenol] on Candida albicans ATCC 90028, anyone have it?
32 µg/mL

Lab note: need MIC for CC/C(=C(/C)c1cccc(O)c1)[N+](=O)[O-] [Compound 26, 3-((E)-3-nitropent-2-en-2-yl)phenol] on Candida albicans ATCC 90028, anyone have it?
> 64 µg/mL

Lab note: need MIC for C/C(=C\c1ccc(O)cc1)[N+](=O)[O-] [Compound 17, 4-((E)-2-nitroprop-1-enyl) phenol] on Candida albicans ATCC 90028, anyone have it?
4 to 32 µg/mL

###

- System: Escherichia coli ATCC 25922
- ASSAY METHOD TEXT: Broth microdilution antibacterial susceptibility (MIC/MBC)
- Type: cell-based
- RUN PARAMETERS: Escherichia coli, ATCC25922; ≥99.9% reduction of original inoculum; read-out: MBC, Ec ATCC 25922
Measured MBC, listed per entry for reference.

Consider the reported MBC for these compounds:
- COMPOUND: "C/C(=C\\c1ccc(O)cc1)[N+](=O)[O-] [Compound 17, 4-((E)-2-nitroprop-1-enyl) phenol]"
  OBS VALUE: "16 µg/mL"
- COMPOUND: "CC/C(=C\\c1ccc(O)cc1)[N+](=O)[O-] [Compound 18, 4-((E)-2-nitrobut-1-enyl) phenol]"
  OBS VALUE: "> 64 µg/mL"
- COMPOUND: "O=[N+]([O-])/C=C/c1ccc(O)cc1 [Compound 16, 4-((E)-2-nitrovinyl) phenol]"
  OBS VALUE: "> 64 µg/mL"

In the following, a different compound is considered.
Looking for the measured MBC of COc1ccc(/C=C(\C)[N+](=O)[O-])cc1 [Compound 14] , can you help?
> 64 µg/mL

###

- Test system: Aspergillus niger ATCC 16404
- ASSAY METHOD TEXT: Broth microdilution antifungal susceptibility (MIC/MFC)
- Assay type: cell-based
- RUN PARAMETERS: broth microdilution, 35°C, 48 h
Measured MIC, An ATCC 16404, listed per entry for reference.
Report as a plain number; the unit µg/mL is understood.

Consider the reported MIC, An ATCC 16404 for these compounds:
- COMPOUND: "C/C(=C\\c1ccc(O)cc1)[N+](=O)[O-] [Compound 17, 4-((E)-2-nitroprop-1-enyl) phenol]"
  TESTED ON: "Aspergillus niger ATCC 16404"
  MIC, An ATCC 16404, µg/mL: 4
- COMPOUND: "CC/C(=C\\c1ccc([N+](=O)[O-])cc1)[N+](=O)[O-]"
  TESTED ON: "Aspergillus niger ATCC 16404"
  MIC, An ATCC 16404, µg/mL: 4
- COMPOUND: "O=[N+]([O-])/C=C/c1ccc([N+](=O)[O-])cc1 [Compound 7, 1-nitro-4-((E)-2-nitrovinyl) benzene]"
  TESTED ON: "Aspergillus niger ATCC 16404"
  MIC, An ATCC 16404, µg/mL: 2
- COMPOUND: "CC/C(=C\\c1cccc(O)c1)[N+](=O)[O-] [Compound 21, 3-((E)-2-nitrobut-1-enyl) phenol]"
  TESTED ON: "Aspergillus niger ATCC 16404"
  MIC, An ATCC 16404, µg/mL: 4
- COMPOUND: "CC/C(=C\\c1ccc(O)cc1)[N+](=O)[O-] [Compound 18, 4-((E)-2-nitrobut-1-enyl) phenol]"
  TESTED ON: "Aspergillus niger ATCC 16404"
  MIC, An ATCC 16404, µg/mL: 4

In the following, a different compound is considered.
Lab note: need MIC, An ATCC 16404 for C/C(=C\c1cccc(O)c1)[N+](=O)[O-] [Compound 20, 3-((E)-2-nitroprop-1-enyl) phenol] on Aspergillus niger ATCC 16404, anyone have it?
4

###

- System: Pseudomonas aeruginosa ATCC 27853
- ASSAY METHOD TEXT: Broth microdilution antibacterial susceptibility (MIC/MBC)
- Format: cell-based
- RUN PARAMETERS: Pseudomonas aeruginosa, ATCC27853, read-out: MBC, Pa ATCC 27853
Measured MBC, listed per entry for reference.
Report as a plain number; the unit µg/mL is understood.

Consider the reported MBC for these compounds:
- COMPOUND: "CC/C(=C\\c1cccc([N+](=O)[O-])c1)[N+](=O)[O-]"
  OBS VALUE: 16
- COMPOUND: "O=[N+]([O-])/C=C/c1ccc([N+](=O)[O-])cc1 [Compound 7, 1-nitro-4-((E)-2-nitrovinyl) benzene]"
  OBS VALUE: 32

In the following, a different compound is considered.
Lab note: need MBC for CC/C(=C\c1ccc([N+](=O)[O-])cc1)[N+](=O)[O-] on Pseudomonas aeruginosa ATCC 27853, anyone have it?
32

###

- Tested on: Pseudomonas aeruginosa ATCC 27853
- ASSAY METHOD TEXT: Broth microdilution antibacterial susceptibility (MIC/MBC)
- Format: cell-based
- RUN PARAMETERS: broth microdilution, 35°C, 24 h
- Source text: One reference each of the following species was used for their in vitro susceptibility to β-nitrostyrene in this study: Staphylococcus aureus ATCC 29213, Staphylococcus epidermidis ATCC 14990, Escherichia coli ATCC 25922, Pseudomonas aeruginosa ATCC 27853, Candida albicans ATCC 90028, Candida glabrata ATCC 90030, Aspergillus fumigatus ATCC 16424 and Aspergillus niger ATCC 16404. These strains were procured from the American Type Culture Collection (ATCC, Manassas, VA, USA). […]
RESULT TYPE: MIC, Pa ATCC 27853

Consider the reported MIC, Pa ATCC 27853 for these molecules:
- MOLECULE: "CC/C(=C\\c1cccc(O)c1)[N+](=O)[O-] [Compound 21, 3-((E)-2-nitrobut-1-enyl) phenol]"
  MIC, Pa ATCC 27853: "32 µg/mL"
- MOLECULE: "CC/C(=C\\c1ccc([N+](=O)[O-])cc1)[N+](=O)[O-]"
  MIC, Pa ATCC 27853: "16 µg/mL"
- MOLECULE: "C/C(=C\\c1ccc(O)cc1)[N+](=O)[O-] [Compound 17, 4-((E)-2-nitroprop-1-enyl) phenol]"
  MIC, Pa ATCC 27853: "16 µg/mL"
- MOLECULE: "C/C(=C\\c1cccc(O)c1)[N+](=O)[O-] [Compound 20, 3-((E)-2-nitroprop-1-enyl) phenol]"
  MIC, Pa ATCC 27853: "16 µg/mL"

In the following, a different molecule is considered.
Looking for the measured MIC, Pa ATCC 27853 of O=[N+]([O-])/C=C/c1ccc([N+](=O)[O-])cc1 [Compound 7, 1-nitro-4-((E)-2-nitrovinyl) benzene] , can you help?
16 µg/mL
